Reference source for all entries: ChEMBL document CHEMBL1921792

Some compounds, each annotated with its measured Activity.
- Tested on: N1E-115
- assay_name: Blockade of voltage-gated sodium channel in mouse N1E-115 cells assessed as stimulation at 100 umol at -90 mV holding potential by whole-cell patch clamp electrophysiological assay relative to control
- Assay type: cell-based
endpoint: Activity (%)

| compound | system_name | unit_annotation | experimental_result |
| --- | --- | --- | --- |
| Cc1cccc(C)c1OCC(=O)NC1CCCCC1O (racemic; 1) | N1E-115 | % | 85 |
| O=C1NC(=O)C(c2ccccc2)(c2ccccc2)N1 | N1E-115 | % | 78 |
| Nc1nnc(-c2cccc(Cl)c2Cl)c(N)n1 | N1E-115 | % | 67 |
| NC(=O)N1c2ccccc2C=Cc2ccccc21 | N1E-115 | % | 78 |

---

- Tested on: Mus musculus
- assay_name: Anticonvulsant activity in mouse assessed as protection against maximal electric shock-induced seizures at 30 mg/kg, ip after 0.5 hrs
- Assay type: functional, organism-based
- Set-up: dose 30 mg/kg
Active and inactive are the calls of the source. No cut-off for these calls is given here.
Outcomes: active, inactive

| compound | class |
| --- | --- |
| Cc1cccc(C)c1OCC(=O)NC1CCC(O)CC1.Cl (racemic) | inactive |
| Cc1cccc(C)c1OCC(=O)N[C@H]1CCCC[C@@H]1O.O=C(O)C(O)C(O)C(=O)O | inactive |
| Cc1cccc(C)c1OCC(=O)N[C@@H]1CCCC[C@H]1O.O=C(O)C(O)C(O)C(=O)O | inactive |
| Cc1cccc(C)c1OCCNC1CCCCC1O (racemic) | active |
| Cc1cccc(C)c1OCC(=O)N[C@@H]1CCCC[C@@H]1O | inactive |

---

- assay_name: Neurotoxicity in ip dosed mouse assessed as inability to maintain equilibrium on rotarod by rotarod test
- Assay type: toxicity, organism-based
- test_conditions: in vivo
Some molecules, each annotated with its measured TD50.
endpoint: TD50

| molecule | experimental_result |
| --- | --- |
| Cc1cccc(C)c1OCC(=O)NC1CCCCC1O.Cl (racemic; 1) | 106 mg/kg |
| Cc1cccc(C)c1OCCNC1CCCCC1O (racemic) | 28.4 mg/kg |
| Cc1cccc(C)c1OCC(=O)N[C@H]1CCCC[C@@H]1O.O=C(O)C(O)C(O)C(=O)O | 68.7 mg/kg |
| O=C1NC(=O)C(c2ccccc2)(c2ccccc2)N1 [PHENYTOIN] | 34.5 mg/kg |

---

- Test system: Mus musculus
- assay_name: Neurotoxicity in mouse assessed as inability to maintain equilibrium on rotarod at 100 mg/kg, ip after 0.5 hrs by rotarod test
- Type: toxicity, organism-based
- Design: dose 100 mg/kg, route intraperitoneal
- test_conditions: in vivo

| compound | Activity |
| --- | --- |
| Cc1cccc(C)c1OCCNC1CCCCC1O (racemic) | Toxic |
| Cc1cccc(C)c1OCC(=O)NC1CCCCC1O.Cl (racemic; 4) | Non-toxic |
| Cc1cccc(C)c1OCC(=O)N[C@@H]1CCCC[C@@H]1O | Non-toxic |
| Cc1cccc(C)c1OCC(=O)N[C@H]1CCCC[C@@H]1O.O=C(O)C(O)C(O)C(=O)O | Non-toxic |
| Cc1cccc(C)c1OCC(=O)N[C@H]1CCCC[C@H]1O | Non-toxic |

---

Some molecules, each annotated with its measured Ratio TD50/ED50.
- Species: Mus musculus
- assay_name: Protective index, ratio of TD50 for neurotoxicity in mouse to ED50 for inhibition of maximal electroshock-induced seizures in mouse
- Format: functional

| molecule | Ratio TD50/ED50 |
| --- | --- |
| Cc1cccc(C)c1OCCNC1CCCCC1O (racemic) | 3.9 |
| Cc1cccc(C)c1OCC(=O)NC1CCCCC1O.Cl (racemic; 1) | 2.475 |
| O=C1NC(=O)C(c2ccccc2)(c2ccccc2)N1 | 6.6 |
| Cc1cccc(C)c1OCC(=O)NC1CCCCC1O.Cl (racemic; 4) | 1.493 |
| Cc1cccc(C)c1OCC(=O)N[C@H]1CCCC[C@@H]1O.O=C(O)C(O)C(O)C(=O)O | 1.937 |

---

- Test system: Mus musculus
- assay_name: Neurotoxicity in mouse assessed as inability to maintain equilibrium on rotarod at 30 mg/kg, ip after 4 hrs by rotarod test
- Assay type: toxicity, organism-based
- Parameters: dose 30 mg/kg, route intraperitoneal
- test_conditions: in vivo

| molecule | Activity |
| --- | --- |
| Cc1cccc(C)c1OCC(=O)N[C@@H]1CCCC[C@@H]1O | Non-toxic |
| Cc1cccc(C)c1OCCNC1CCC(O)CC1 (racemic) | Non-toxic |
| Cc1cccc(C)c1OCC(=O)N[C@H]1CCCC[C@@H]1O.O=C(O)C(O)C(O)C(=O)O | Non-toxic |
| Cc1cccc(C)c1OCC(=O)N[C@@H]1CCCC[C@H]1O.O=C(O)C(O)C(O)C(=O)O | Non-toxic |
| Cc1cccc(C)c1OCC(=O)NC1CCCCC1O.Cl (racemic; 1) | Non-toxic |
| Cc1cccc(C)c1OCC(=O)NC1CCC(O)CC1.Cl (racemic) | Non-toxic |
| Cc1cccc(C)c1OCCNC1CCCCC1O (racemic) | Non-toxic |
| Cc1cccc(C)c1OCC(=O)N[C@H]1CCCC[C@H]1O | Non-toxic |

---

- Tested on: Mus musculus
- assay_name: Neurotoxicity in mouse assessed as inability to maintain equilibrium on rotarod at 300 mg/kg, ip after 0.5 hrs by rotarod test
- Assay type: toxicity, organism-based
- Design: dose 300 mg/kg, route intraperitoneal
- test_conditions: in vivo

| compound | Activity |
| --- | --- |
| Cc1cccc(C)c1OCC(=O)N[C@H]1CCCC[C@@H]1O.O=C(O)C(O)C(O)C(=O)O | Non-toxic |
| Cc1cccc(C)c1OCCNC1CCC(O)CC1 (racemic) | Toxic |
| Cc1cccc(C)c1OCC(=O)NC1CCCCC1O.Cl (racemic; 1) | Toxic |
| Cc1cccc(C)c1OCCNC1CCCCC1O (racemic) | Toxic |
| Cc1cccc(C)c1OCC(=O)NC1CCC(O)CC1.Cl (racemic) | Toxic |
| Cc1cccc(C)c1OCC(=O)NC1CCCCC1O.Cl (racemic; 4) | Non-toxic |
| Cc1cccc(C)c1OCC(=O)N[C@@H]1CCCC[C@@H]1O | Non-toxic |

---

- Tested on: Mus musculus
- assay_name: Anticonvulsant activity in mouse assessed as protection against maximal electric shock-induced seizures at 100 mg/kg, ip after 0.5 hrs
- Format: functional, organism-based
- Set-up: dose 100 mg/kg
The source made the active and inactive calls. The calls are words filed in the database; no cut-off is given here.
Outcomes: TRUE for active, FALSE for inactive

| molecule | system_name | class |
| --- | --- | --- |
| Cc1cccc(C)c1OCC(=O)N[C@@H]1CCCC[C@H]1O.O=C(O)C(O)C(O)C(=O)O | Mus musculus | FALSE |
| Cc1cccc(C)c1OCC(=O)NC1CCCCC1O (racemic; 4) | Mus musculus | FALSE |
| Cc1cccc(C)c1OCC(=O)NC1CCC(O)CC1.Cl (racemic) | Mus musculus | TRUE |
| Cc1cccc(C)c1OCCNC1CCC(O)CC1 (racemic) | Mus musculus | TRUE |
